# System: Caco-2 cell monolayer
# test_description: Caco-2 transepithelial transport assay of digested red wine
# Format: in vitro ADME, human
# assay_context: Helanshan red wine, digested sample, basolateral side of Caco-2 monolayer
Marks after values point to notes of the source that are not given here.
measure_name: PC Contents, Helanshan, Transmembrane

Task item: Tell me the measured PC Contents, Helanshan, Transmembrane of O=c1c(O[C@@H]2O[C@H](CO)[C@@H](O)[C@H](O)[C@H]2O)c(-c2ccc(O)c(O)c2)oc2cc(O)cc(O)c12 [Quercetin-3-glc] , please.
Reply: 5.10 ± 0.28 ^a mg/L

Task item: Reported PC Contents, Helanshan, Transmembrane, molecule "O=C(/C=C/c1ccc(O)c(O)c1)O[C@@H](C(=O)O)[C@@H](O)C(=O)O" : ____
Reply: 0.49 ± 0.02 ^a mg/L

Task item: What PC Contents, Helanshan, Transmembrane value was documented for this molecule, "C[C@@H]1O[C@@H](O[C@H]2C(=O)c3c(O)cc(O)cc3O[C@@H]2c2ccc(O)c(O)c2)[C@H](O)[C@H](O)[C@H]1O" ?
Reply: 0.93 ± 0.04 ^a mg/L

Task item: Name the reported PC Contents, Helanshan, Transmembrane value associated with the molecule "COc1cc(-c2[o+]c3cc(O)cc(O)c3cc2O[C@@H]2O[C@H](COC(C)=O)[C@@H](O)[C@H](O)[C@H]2O)cc(OC)c1O"
Reply: 6.06 ± 0.25 ^a mg/L

Task item: // PC Contents, Helanshan, Transmembrane lookup, key: "O=C(O)c1cc(O)c(O)c(O)c1"
Reply: 2.53 ± 0.14 ^a mg/L

Task item: Consider the molecule O=c1c(OC2O[C@H](CO)[C@@H](O)[C@H](O)[C@H]2O)c(-c2cc(O)c(O)c(O)c2)oc2cc(O)cc(O)c12 (stereo partly shown) and give its measured PC Contents, Helanshan, Transmembrane.
Reply: 0.64 ± 0.02 ^a mg/L

Task item: Fill blank: measured PC Contents, Helanshan, Transmembrane of the molecule "COc1cc(-c2oc3cc(O)cc(O)c3c(=O)c2O[C@@H]2O[C@H](CO)[C@@H](O)[C@H](O)[C@H]2O)ccc1O" is ____.
Reply: 0.69 ± 0.03 ^a mg/L

====

# Test system: Caco-2 cell monolayer
# test_description: Caco-2 transepithelial transport assay of digested red wine
# Format: in vitro ADME, human
# assay_context: Caco-2
Marks after values point to notes of the source that are not given here.
measure_name: PC Contents, Tianzhu, Transmembrane

Task item: Requested read-out PC Contents, Tianzhu, Transmembrane, target or system Caco-2 cell monolayer, entry "O=C(/C=C/c1ccc(O)cc1)O[C@@H](C(=O)O)[C@@H](O)C(=O)O"
Reply: 0.64 ± 0.03 ^a mg/L

Task item: Request: PC Contents, Tianzhu, Transmembrane, test system Caco-2 cell monolayer, entry COc1cc(-c2[o+]c3cc(O)cc(O)c3cc2OC2OC(COC(C)=O)C(O)C(O)C2O)cc(O)c1O (centres unmarked)
Reply: 0.23 ± 0.008 ^a mg/L

Task item: Can you look up PC Contents, Tianzhu, Transmembrane on Caco-2 cell monolayer for "COc1cc(-c2oc3cc(O)cc(O)c3c(=O)c2O[C@@H]2O[C@H](CO)[C@@H](O)[C@H](O)[C@H]2O)cc(OC)c1O" ?
Reply: 6.01 ± 0.22 ^a mg/L

Task item: Query PC Contents, Tianzhu, Transmembrane on Caco-2 cell monolayer for "COc1cc(-c2oc3cc(O)cc(O)c3c(=O)c2O[C@@H]2O[C@H](CO)[C@@H](O)[C@H](O)[C@H]2O)cc(O)c1O"
Reply: 5.70 ± 0.29 ^a mg/L

Task item: Give PC Contents, Tianzhu, Transmembrane (Caco-2 cell monolayer) of the following molecule: "COc1cc(-c2[o+]c3cc(O)cc(O)c3cc2O[C@@H]2O[C@H](CO)[C@@H](O)[C@H](O)[C@H]2O)cc(O)c1O"
Reply: 1.06 ± 0.04 ^a mg/L
